This section presents molecules with their documented viability, % of control values.
Test: Viability qHTS for spleen associated tyrosine kinase inhibitor (SYKi) drug resistant MV4-11 cells (AID 1963824); note: nearly all actives have a fitted effect of over 35% in size
Settings: SYKi-resistant MV4-11 viability, CellTiter-Glo, 72 h; series mostly up to 45 µM
Inconclusive results are not listed. Calls of active or inactive are those of the source. Calls come from the whole dose curve; as a rule, active = well fitted cell-killing curve with a large enough effect; inconclusive = small, poorly fitted or top-dose-only effect, or effect the other way; inactive = no such curve, though single readings can be large or run the other way.

molecule	viability, % of control
C[C@@H]1O[C@@H](O[C@H]2[C@H](O[C@H]3CC[C@@]4(C)C(CC[C@]5(C)C4CC=C4C6CC(C)(C)CC[C@]6(C(=O)O[C@@H]6O[C@H](CO[C@@H]7O[C@H](CO)[C@@H](O[C@@H]8O[C@@H](C)[C@H](O)[C@@H](O)[C@H]8O)[C@H](O)[C@H]7O)[C@@H](O)[C@H](O)[C@H]6O)CC[C@]45C)[C@]3(C)CO)OC[C@H](O)[C@@H]2O)[C@H](O)[C@H](O)[C@H]1O (stereo partly drawn)	88.1% [at 9.25 µM] (inactive)
C[C@@H]1O[C@@H](O[C@H]2[C@H](O[C@H]3[C@H](O)[C@@H](C(=O)O)O[C@@H](O[C@H]4CC[C@@]5(C)C(CC[C@]6(C)C5CC[C@]57OC[C@@]8(CCC(C)(C)CC85)[C@H](O)C[C@]76C)C4(C)C)[C@@H]3O[C@@H]3O[C@H](CO)[C@@H](O[C@@H]4OC[C@@H](O)[C@H](O)[C@H]4O)[C@H](O)[C@H]3O)O[C@H](CO)[C@H](O)[C@@H]2O)[C@H](O)[C@H](O)[C@H]1O (stereo partly drawn)	94.7% [at 9.25 µM] (inactive)
COc1cc2c(c(OC)c1O)C(c1ccc(O)cc1)C1C(=O)OC3C(COC(=O)C1=C2)OC(CO)(OC1OC(COC(=O)/C=C/c2ccc(OC4OC(C)C(O)C(O)C4O)cc2)C(O)C(O)C1O)C3O (stereo not drawn)	81.2% [at 9.25 µM] (inactive)
